Cited source for all entries: BindingDB's records for doi:10.1124/mol.112.080291

Let's go through some pKi measurements on UniProt:P58154 together.
Please note pKi is a logarithmic value: minus log10 of concentration in mol/L. Answer with that number alone.

Here's what some known entries look like.
molecule: CN1[C@@H]2CC[C@H]1C[C@H](n1cc(CNC(=O)c3ccco3)nn1)C2 [12t]
pKi: 6.68
--
molecule: Cn1nncc1COc1cc(=O)n(C)c2ccccc12
pKi: 7.22

From here, focus on the item given below.
Request: Give the measured pKi of C[N+]1(C)[C@@H]2CC[C@H]1C[C@H](n1cc(CNC(=O)c3ccco3)nn1)C2 [12q] .
Response: 6.40

====

- testedSystem: Acetylcholine-binding protein (Lymnaea stagnalis)
- Sequence (P58154 whole entry): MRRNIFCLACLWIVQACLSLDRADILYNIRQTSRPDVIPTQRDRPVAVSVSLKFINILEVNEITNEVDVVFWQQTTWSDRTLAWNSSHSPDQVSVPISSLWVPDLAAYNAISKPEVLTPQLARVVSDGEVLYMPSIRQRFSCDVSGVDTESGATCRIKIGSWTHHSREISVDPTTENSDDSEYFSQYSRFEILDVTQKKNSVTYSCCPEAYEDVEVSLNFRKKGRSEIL
pKi: −log10 of the molar value.
Classification field: class 1 = pKi at or over 7; class 0 = pKi under 7.

Here are 5 compounds together with their reported answers.
compound: CN1[C@@H]2CC[C@H]1C[C@H](n1cc(C(O)(c3ccccc3)C(F)(F)F)nn1)C2 (stereo partly specified) [19t]
groupLabel: class 0

compound: C[N+]1(C)[C@@H]2CC[C@H]1C[C@H](n1cc(C3(O)CCCCC3)nn1)C2 [11q]
groupLabel: class 0

compound: CN1[C@@H]2CC[C@H]1C[C@H](n1cc(COc3ccccc3-c3ccno3)nn1)C2 [14t]
groupLabel: class 1

compound: CN1[C@@H]2CC[C@H]1C[C@H](n1cc(COc3cc(=O)n(C)c4ccccc34)nn1)C2
groupLabel: class 1

compound: C[N+]1(C)[C@@H]2CC[C@H]1C[C@H](n1cc(COc3ccccc3-c3ccno3)nn1)C2 [14q]
groupLabel: class 1

Request: Kindly determine if pKi recorded for CN1[C@@H]2CC[C@H]1C[C@H](n1cc(C3(O)CCCCC3)nn1)C2 [11t] is above or exactly 7.
Response: class 0

Request: Kindly determine if pKi recorded for CN1[C@@H]2CC[C@H]1C[C@H](n1cc(C3(O)c4ccccc4-c4ccccc43)nn1)C2 [20t] is above or exactly 7.
Response: class 0

Request: Kindly determine if pKi recorded for C[N+]1(C)[C@@H]2CC[C@H]1C[C@H](n1cc(CNC(=O)N3c4ccccc4CCc4ccccc43)nn1)C2 [23q] is above or exactly 7.
Response: class 0

Request: Kindly determine if pKi recorded for Cc1cc(C)nc(SCCCc2cn([C@@H]3C[C@H]4CC[C@@H](C3)[N+]4(C)C)nn2)n1 [21q] is above or exactly 7.
Response: class 1

====

- testedSystem: Neuronal acetylcholine receptor subunit alpha-7 (Homo sapiens, UniProt P36544)
- Sequence (P36544 whole entry): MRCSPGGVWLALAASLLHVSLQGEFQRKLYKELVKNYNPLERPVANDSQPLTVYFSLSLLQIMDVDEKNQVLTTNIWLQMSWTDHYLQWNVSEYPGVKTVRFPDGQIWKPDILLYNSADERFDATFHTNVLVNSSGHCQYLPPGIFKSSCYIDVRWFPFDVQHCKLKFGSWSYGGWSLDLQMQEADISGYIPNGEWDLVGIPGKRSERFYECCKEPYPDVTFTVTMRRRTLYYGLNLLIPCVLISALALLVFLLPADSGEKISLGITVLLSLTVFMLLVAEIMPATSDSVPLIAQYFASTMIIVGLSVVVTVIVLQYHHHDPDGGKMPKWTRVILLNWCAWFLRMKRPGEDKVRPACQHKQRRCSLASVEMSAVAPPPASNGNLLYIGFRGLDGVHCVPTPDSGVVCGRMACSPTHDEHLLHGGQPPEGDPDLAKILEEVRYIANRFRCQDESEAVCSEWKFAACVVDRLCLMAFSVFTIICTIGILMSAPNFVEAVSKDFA
- protocolSummary: Synthesizing Selective Agonists for the ?7 Nicotinic Receptor with in situ Click-Chemistry on Acetylcholine Binding Protein Templates.
- assayContext: pH 7.4; 37 °C
recordedMetric: EC50 (nM)
Use nM as the unit, but write only the number.

Here's what some known entries look like.
compound: Cn1nncc1COc1cc(=O)n(C)c2ccccc12
EC50 [nM]: 6000

compound: C[N+]1(C)[C@@H]2CC[C@H]1C[C@H](n1cc(CSc3nc4ccccc4s3)nn1)C2 [15q]
EC50 [nM]: 200

From here, focus on the item given below.
Request: Give the measured EC50 of C[N+]1(C)[C@@H]2CC[C@H]1C[C@H](n1cc(CNS(=O)(=O)c3ccc([N+](=O)[O-])cc3)nn1)C2 [16q] .
Response: 1800
